Tested on: cloned human or rodent CNS receptors, channels, and transporters (PDSP panel)
Method Description: PDSP GPCR panel primary binding assays at 10 μM
Cond: Receptor Sigma 2; primary assay, 10 μM
Parameter Measured: Inhibition 4

INSERT INTO assay_data (compound, tgt, result) VALUES
  ('O=c1oc2ccccc2cc1-c1cn2cc(Cc3ccc(F)cc3)sc2n1 [UNC10302680A, iMDK]', 'cloned human or rodent CNS receptors, channels, and transporters (PDSP panel)', '21.82%'),
  ('c1cn2cc(-c3ccc4cn[nH]c4c3)nc(Nc3ccc(N4CCOCC4)cc3)c2n1 [UNC10302678A, Entospletinib (GS-9973)]', 'cloned human or rodent CNS receptors, channels, and transporters (PDSP panel)', '-0.08%'),
  ('CCCCNc1ncc2c(-c3ccc(CN4CCN(C)CC4)cc3)cn([C@H]3CC[C@H](O)CC3)c2n1 [UNC2025C, UNC2025]', 'cloned human or rodent CNS receptors, channels, and transporters (PDSP panel)', '98.03%'),
  ('Cl.NC(=O)c1cnc(N[C@@H]2CCCC[C@@H]2N)nc1Nc1cccc(-n2nccn2)c1 [UNC10302682A, P505-15 (PRT06207 HCl)]', 'cloned human or rodent CNS receptors, channels, and transporters (PDSP panel)', '81.11%');

----------
Tgt: cloned human or rodent CNS receptors, channels, and transporters (PDSP panel) (Homo sapiens, UniProt P35368)
Construct: expressed in transfected cells
Sequence (P35368 1-520): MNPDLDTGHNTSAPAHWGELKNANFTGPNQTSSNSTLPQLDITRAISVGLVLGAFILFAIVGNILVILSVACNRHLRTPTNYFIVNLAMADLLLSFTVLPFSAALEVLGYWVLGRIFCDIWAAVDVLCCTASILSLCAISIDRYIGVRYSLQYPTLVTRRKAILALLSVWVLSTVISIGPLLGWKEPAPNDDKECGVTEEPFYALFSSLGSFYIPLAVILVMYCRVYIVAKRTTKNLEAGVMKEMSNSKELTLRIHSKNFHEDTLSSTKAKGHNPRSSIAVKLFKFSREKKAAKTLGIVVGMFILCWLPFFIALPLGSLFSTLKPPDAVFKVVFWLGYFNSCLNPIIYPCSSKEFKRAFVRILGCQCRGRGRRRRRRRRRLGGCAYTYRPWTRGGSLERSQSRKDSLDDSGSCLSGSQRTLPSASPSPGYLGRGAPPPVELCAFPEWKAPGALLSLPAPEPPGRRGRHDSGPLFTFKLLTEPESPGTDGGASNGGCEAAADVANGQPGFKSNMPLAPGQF
Method Description: PDSP GPCR panel primary binding assays at 10 μM
Cond: Receptor Alpha1B; primary assay, 10 μM
Parameter Measured: Inhibition 2 (%)

INSERT INTO assay_data (compound, unit_of_measurement, number) VALUES
  ('CCCCNc1ncc2c(-c3ccc(CN4CCN(C)CC4)cc3)cn([C@H]3CC[C@H](O)CC3)c2n1 [UNC2025C, UNC2025]', '%', -0.72),
  ('c1cn2cc(-c3ccc4cn[nH]c4c3)nc(Nc3ccc(N4CCOCC4)cc3)c2n1 [UNC10302678A, Entospletinib (GS-9973)]', '%', -28.67),
  ('O=c1oc2ccccc2cc1-c1cn2cc(Cc3ccc(F)cc3)sc2n1 [UNC10302680A, iMDK]', '%', 0.66),
  ('Cl.NC(=O)c1cnc(N[C@@H]2CCCC[C@@H]2N)nc1Nc1cccc(-n2nccn2)c1 [UNC10302682A, P505-15 (PRT06207 HCl)]', '%', 57.49);
